B1: KRT34 (parent)
chain: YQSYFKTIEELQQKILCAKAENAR

Variants of: B1
Assay: protein stability index of a GFP-peptide fusion (GPS, HEK-293T) (PSI 1-6); higher = more stable;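 further: lentivirally expressed fusions sorted by FACS into six bins by GFP to DsRed ratio, PSI derived from sequencing read proportions per bin multiplied by bin number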
Conditions: c terminus: a fixed tail appended
ENDPOINT_LABEL: protein stability index

N22R :: 1.43
E9P :: 1.29
A18Q :: 1.83
E10M :: 2
I8K :: 2.47
C17I :: 2.16
N22M :: 1.59
T7Q :: 2.07
L11T :: 1.62
A18E :: 1.45

Continue with the next variant.
*Q* Query (variant): E10T ; field requested: protein stability index
*A* 1.27

Data origin: the supplement of paper PMC10567573
